Organism: Rattus norvegicus
assay: Clearance rate constant using isolated perfused rat liver (IPRL) assay
Type: ADME
Hi there, I'd appreciate the recorded k for every entry that follows.
Numbers only, in h⁻¹.

smi=CC(=O)N1CSC[C@H]1C(=O)N/C(=C\c1ccc(OCc2ccccc2)cc1)C(=O)O value_units=h⁻¹ recorded_number=3.8
smi=CC(=O)N1CSC[C@@H]1C(=O)N/C(=C\c1ccc(NC(=O)c2c(Cl)cccc2Cl)cc1)C(=O)O value_units=h⁻¹ recorded_number=3.9

List reported k for each of these compounds:
1. CC(=O)N1CSC[C@@H]1C(=O)N/C(=C/c1ccc(NC(=O)c2c(Cl)cccc2Cl)cc1)C(=O)O
2. CC(=O)N1CSC[C@@H]1C(=O)N/C(=C\c1ccc(NC(=O)c2c(Cl)cncc2Cl)cc1)C(=O)O

0.7
4.4

* * *

system: Integrin alpha-4/beta-1 (Homo sapiens, UniProt P05556+P13612)
Sequence (P05556 whole entry): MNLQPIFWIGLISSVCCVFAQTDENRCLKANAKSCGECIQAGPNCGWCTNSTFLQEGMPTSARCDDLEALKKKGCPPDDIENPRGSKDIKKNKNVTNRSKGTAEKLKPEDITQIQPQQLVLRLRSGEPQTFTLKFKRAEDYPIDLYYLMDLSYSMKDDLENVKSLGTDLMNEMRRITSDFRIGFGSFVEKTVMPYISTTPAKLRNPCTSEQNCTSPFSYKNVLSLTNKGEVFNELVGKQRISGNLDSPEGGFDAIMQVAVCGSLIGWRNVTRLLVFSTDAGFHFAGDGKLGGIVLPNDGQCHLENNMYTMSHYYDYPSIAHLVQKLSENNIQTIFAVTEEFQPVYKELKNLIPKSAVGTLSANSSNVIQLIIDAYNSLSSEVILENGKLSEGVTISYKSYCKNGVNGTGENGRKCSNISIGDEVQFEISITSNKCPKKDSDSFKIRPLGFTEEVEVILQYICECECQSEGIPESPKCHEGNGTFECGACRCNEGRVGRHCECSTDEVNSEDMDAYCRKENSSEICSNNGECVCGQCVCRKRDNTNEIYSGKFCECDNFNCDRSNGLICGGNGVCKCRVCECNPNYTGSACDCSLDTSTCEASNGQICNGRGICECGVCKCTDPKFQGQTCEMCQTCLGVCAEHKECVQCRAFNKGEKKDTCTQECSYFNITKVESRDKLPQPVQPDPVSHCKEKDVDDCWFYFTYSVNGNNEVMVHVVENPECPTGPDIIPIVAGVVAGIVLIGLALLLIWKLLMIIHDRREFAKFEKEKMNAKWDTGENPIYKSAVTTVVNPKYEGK
Sequence (P13612 whole entry): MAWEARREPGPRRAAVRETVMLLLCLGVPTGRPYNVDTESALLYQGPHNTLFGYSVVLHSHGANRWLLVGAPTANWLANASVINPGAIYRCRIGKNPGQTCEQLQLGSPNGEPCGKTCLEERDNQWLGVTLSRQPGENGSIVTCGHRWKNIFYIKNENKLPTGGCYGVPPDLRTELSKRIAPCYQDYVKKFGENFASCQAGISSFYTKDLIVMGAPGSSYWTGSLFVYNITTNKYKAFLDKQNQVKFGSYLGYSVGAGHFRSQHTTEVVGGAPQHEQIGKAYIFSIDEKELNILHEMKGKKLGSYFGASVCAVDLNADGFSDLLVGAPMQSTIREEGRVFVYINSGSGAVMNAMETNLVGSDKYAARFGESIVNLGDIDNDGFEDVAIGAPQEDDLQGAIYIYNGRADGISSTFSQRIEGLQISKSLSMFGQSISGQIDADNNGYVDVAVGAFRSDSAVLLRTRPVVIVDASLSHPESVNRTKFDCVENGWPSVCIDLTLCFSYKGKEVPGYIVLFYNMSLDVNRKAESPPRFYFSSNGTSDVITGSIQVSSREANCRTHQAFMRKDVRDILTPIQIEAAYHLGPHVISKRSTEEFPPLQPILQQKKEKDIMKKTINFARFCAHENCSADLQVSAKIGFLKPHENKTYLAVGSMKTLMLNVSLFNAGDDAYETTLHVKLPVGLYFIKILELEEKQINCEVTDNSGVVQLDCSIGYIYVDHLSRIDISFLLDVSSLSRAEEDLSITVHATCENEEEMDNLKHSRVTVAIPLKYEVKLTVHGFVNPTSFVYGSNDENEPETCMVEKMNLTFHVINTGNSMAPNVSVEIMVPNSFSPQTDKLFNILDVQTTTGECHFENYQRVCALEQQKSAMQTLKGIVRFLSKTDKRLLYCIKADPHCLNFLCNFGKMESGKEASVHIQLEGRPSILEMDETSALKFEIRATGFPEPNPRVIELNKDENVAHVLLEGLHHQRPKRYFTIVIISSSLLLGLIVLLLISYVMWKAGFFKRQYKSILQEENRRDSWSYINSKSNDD
assay: Inhibition of VLA-4 to VCAM-1 binding in Jurkat cell adhesion assay
Type: cell-based
Label scheme, based on IC50: low (below 0.4 µM), mid (0.4 µM to below 20 µM), high (20 µM or more)

molecule=O=C(O)/C(=C/c1ccc(OCc2c(Cl)cncc2Cl)cc1)NC(=O)c1cccnc1Cl system="Integrin alpha-4/beta-1 (Homo sapiens, UniProt P05556+P13612)" class=mid
molecule=CC(=O)N1CSC[C@@H]1C(=O)N/C(=C\c1ccc(NC(=O)c2c(Cl)cncc2Cl)cc1)C(=O)O system="Integrin alpha-4/beta-1 (Homo sapiens, UniProt P05556+P13612)" class=low
molecule=CC(C)(C)C(=O)N/C(=C\c1ccc(NC(=O)c2c(Cl)cccc2Cl)cc1)C(=O)O system="Integrin alpha-4/beta-1 (Homo sapiens, UniProt P05556+P13612)" class=mid
molecule="CC(=O)N1CSCC1C(=O)N/C(=C/c1ccc(OCc2c(Cl)cccc2Cl)cc1)C(=O)O (stereo not given)" system="Integrin alpha-4/beta-1 (Homo sapiens, UniProt P05556+P13612)" class=high
molecule=CC(C)(C)C(=O)N/C(=C/c1ccc(NC(=O)c2c(Cl)cccc2Cl)cc1)C(=O)O system="Integrin alpha-4/beta-1 (Homo sapiens, UniProt P05556+P13612)" class=high
molecule=CC(=O)N1CSC[C@@H]1C(=O)N/C(=C\c1ccc(NC(=O)c2c(Cl)cccc2Cl)cc1)C(=O)O system="Integrin alpha-4/beta-1 (Homo sapiens, UniProt P05556+P13612)" class=low
molecule=CC(=O)N1CSC[C@H]1C(=O)N/C(=C\c1ccc(OCc2ccccc2)cc1)C(=O)O system="Integrin alpha-4/beta-1 (Homo sapiens, UniProt P05556+P13612)" class=high
molecule=CC(=O)N1CSC[C@@H]1C(=O)N/C(=C/c1ccc(NC(=O)c2c(Cl)cccc2Cl)cc1)C(=O)O system="Integrin alpha-4/beta-1 (Homo sapiens, UniProt P05556+P13612)" class=high
molecule=CC(=O)N1CSC[C@@H]1C(=O)N/C(=C/c1ccc(NC(=O)c2c(Cl)cncc2Cl)cc1)C(=O)O system="Integrin alpha-4/beta-1 (Homo sapiens, UniProt P05556+P13612)" class=low
molecule=O=C(O)/C(=C/c1ccc(NC(=O)c2c(Cl)cncc2Cl)cc1)NC(=O)c1cccnc1Cl system="Integrin alpha-4/beta-1 (Homo sapiens, UniProt P05556+P13612)" class=low

Exam item: assign O=C(O)/C(=C/c1ccc(OCc2c(Cl)cccc2Cl)cc1)NC(=O)c1cccnc1Cl to the correct category.
mid

Can you check CC(=O)N1CSC[C@@H]1C(=O)N/C(=C\c1ccc(OCc2c(Cl)cccc2Cl)cc1)C(=O)O next?
mid

Follow-up item: O=C(O)/C(=C\c1ccc(NC(=O)c2c(Cl)cncc2Cl)cc1)NC(=O)c1cccnc1Cl
mid
